In this section, each of the variants is paired with its reported self-cleavage.
B1: HDV Ribozyme (parent)
chain: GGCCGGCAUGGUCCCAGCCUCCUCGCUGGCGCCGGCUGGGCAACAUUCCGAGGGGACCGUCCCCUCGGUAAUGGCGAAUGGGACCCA

- Variants of: B1
- assay-overview: self-cleavage, relative activity (ratio to wild type); higher = more cleavage; co-transcriptional
Form rule: numeric answer, no unit written next to it.

Q: Please report the measured self-cleavage for A70G G76C
Ans: 0.956

Reference source for all entries: the RNAGym collection of RNA variant scans (doi:10.7554/elife.80360)
